tested on: T-47D breast; assay: NCI tumour cell line growth inhibition, 48 h
Readout label: TGI

• NC(=O)NCCCC(NC(=O)OCCCCCCn1ccc(=O)[nH]c1=O)C(=O)O (stereo unspecified) = > 100 µM
• O=C(O)C1(C(=O)O)CCC1.[NH2-].[NH2-].[Pt+2] = > 250 µM
• O=c1[nH]c(=S)[nH]c2c1CN(CCCN1CCOCC1)CN2 = > 100 µM
• N#CC(Cc1ccccc1)N(CCC1=CCCCC1)Cc1ccccc1 (stereo unspecified) = > 100 µM
• Cn1c(=O)c2c(nc3n2CCCC(=O)N3CC(O)CCl)n(C)c1=O (stereo unspecified) = > 100 µM
• O=[N+]([O-])C(=C(N1CCOCC1)N1CCOCC1)/C(Cl)=C(\Cl)Br = 32.1 µM
• CCN(CC)c1ccc(C(O)C2=CC(=O)c3ccccc3C2=O)cc1 (stereo unspecified) = > 100 µM
• NC(=O)Cc1nc2c(N)ncnc2n1C1OC(CO)C(O)C1O (stereo unspecified) = > 100 µM
• CN(C)CCNC(=O)c1cccc(N(C)C(=O)c2ccccc2)c1[N+](=O)[O-] = > 100 µM
• Oc1ccc(-c2nc3ccccc3s2)cc1CN(Cc1ccccn1)Cc1ccccn1 = 89.9 µM
• Cc1ccc(O)c(C2=CC(c3cccc(Cl)c3)SC(N)=N2)c1 (stereo unspecified) = 99.2 µM
• CC(=O)OC(C)(C)/C(C)=C/C(=O)O[C@H]1C(=O)O[C@@H]2C[C@H]3[C@H](C)C(=O)C(O[C@@H]4O[C@H](CO)[C@@H](O)[C@H](O)[C@H]4O)=C[C@]3(C)[C@H]3[C@@H](O)[C@H](O)[C@@]4(C(=O)O)OC[C@]32[C@@H]14 = > 100 µM
• CCOC(=O)C1c2[nH]c3ccccc3c2CCN1C(=O)c1ccc(OC)o1 (stereo unspecified) = > 10 µM
• CC(=O)OCC1OC(n2c(-c3ccccc3)c(C(C)=O)c(-c3cccc4ccccc34)c(C#N)c2=S)C(OC(C)=O)C(OC(C)=O)C1OC(C)=O (stereo unspecified) = > 100 µM
• O=c1[nH]nc(Cc2c[nH]c3ccccc23)o1 = > 100 µM
• COC(O)C(=O)c1ccc2c(c1)CC1(C2)Cc2cc3c(cc2C1=O)CCC3 (stereo unspecified) = 48.1 µM
• C=C1CCC2C3(C)COC(c4ccccc4)OC3CCC2(C)C1/C=C/C1=CCOC1=O (stereo unspecified) = 69.4 µM
• CCOC(=O)c1cc2/c(=C\c3ccc(N(C)C)cc3)c3ccccc3n2[n+]1C = 24.6 µM
• CCOC(=O)C(Cc1ccc(OC(=O)c2ccc(OC)cc2)cc1)NC(=O)C(F)(F)F (stereo unspecified) = > 100 µM
• S=C(Nc1ccc(-c2nc3ccccc3[nH]2)cc1)Nc1ccc(-c2nc3ccccc3[nH]2)cc1 = > 100 µM
• CC(C)=CCC/C(C)=C/CC/C(C)=C/CC/C(C)=C/CC/C(C)=C/CC/C(C)=C/CC/C(C)=C/CC/C(C)=C/CC/C(C)=C/CO = > 100 µM

###

tested on: UACC-257 melanoma; assay: NCI tumour cell line growth inhibition, 48 h
TGI: recorded values
Readout label: TGI

• Cc1cc(Cc2cc(C)c(NC(=O)C(=O)C3CCC4=C(SC5C=CC=CC5N4)C3=O)c(C(C)C)c2)cc(C(C)C)c1NC(=O)C(=O)C1CCC2=C(SC3C=CC=CC3N2)C1=O (centres undefined) = > 100 µM
• C/C=C(\C)C(O)C(C)C(O)C/C=C(C)/C=C(\C)C/C(C)=C/C/C=C(\C)C(O)C(C)c1ccc(CCC)c(=O)o1 (centres undefined) = 15.2 µM
• CC(C)([NH-])CO.CC(C)([NH-])CO.[Cl][Cd][Cl] = > 100 µM
• CC(C)O/N=C/c1cc(NC(=S)OC(C)C)ccc1Cl = > 100 µM
• O=C1CSC(c2ccccc2[N+](=O)[O-])N1c1ccc(-c2ccc(-n3c(-c4ccccc4)nc4ccccc4c3=O)cc2)cc1 (centres undefined) = > 100 µM
• CC(=O)c1c(C)[nH]c(-c2nc3ccc(N4CCN(C)CC4)cc3[nH]2)c1-c1ccc(N(C)C)cc1 = 11 µM
• CC(=O)NC1(c2cc3ccccc3s2)CCCCCC1 = > 100 µM
• CC(C)=CCC/C(C)=C/CC/C(C)=C/CC/C(C)=C/CC/C(C)=C/CC/C(C)=C/CC/C(C)=C/CC/C(C)=C/CC/C(C)=C/CO = > 100 µM
• NCCCC[C@H](N)C(=O)Nc1ccc(-c2nc3ccccc3s2)cc1 = > 100 µM
